Taken from ChEMBL document CHEMBL4396871.

- test-target: D(4) dopamine receptor (Homo sapiens, UniProt P21917)
- Sequence (P21917 whole entry): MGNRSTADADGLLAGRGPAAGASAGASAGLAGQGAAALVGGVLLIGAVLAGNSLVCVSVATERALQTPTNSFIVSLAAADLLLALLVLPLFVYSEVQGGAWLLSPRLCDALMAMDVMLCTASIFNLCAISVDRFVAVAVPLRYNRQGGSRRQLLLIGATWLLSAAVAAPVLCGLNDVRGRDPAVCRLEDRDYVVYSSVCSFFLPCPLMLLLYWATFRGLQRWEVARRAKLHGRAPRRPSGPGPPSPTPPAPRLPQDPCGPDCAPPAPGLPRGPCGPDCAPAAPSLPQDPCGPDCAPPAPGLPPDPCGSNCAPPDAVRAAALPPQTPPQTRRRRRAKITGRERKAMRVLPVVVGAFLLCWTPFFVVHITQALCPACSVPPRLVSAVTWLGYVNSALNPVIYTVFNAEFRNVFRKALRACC
- assay-overview: Agonist activity at recombinant human D4 receptor expressed in CHOK1 cells assessed as induction of beta arrestin2 recruitment measured after 30 mins by coelenterazine-based beta-galactosidase reporter gene assay
measurement-name: EC50 (nM)
Unit nM implied. Number only.

Which measured EC50 value corresponds to `COc1ccccc1N1CCN(CCCSc2nnc(-c3ccccc3)n2C)CC1` ?
359

---

- test-target: D2 dopamine receptor (Homo sapiens, UniProt P14416)
- Sequence (P14416 whole entry): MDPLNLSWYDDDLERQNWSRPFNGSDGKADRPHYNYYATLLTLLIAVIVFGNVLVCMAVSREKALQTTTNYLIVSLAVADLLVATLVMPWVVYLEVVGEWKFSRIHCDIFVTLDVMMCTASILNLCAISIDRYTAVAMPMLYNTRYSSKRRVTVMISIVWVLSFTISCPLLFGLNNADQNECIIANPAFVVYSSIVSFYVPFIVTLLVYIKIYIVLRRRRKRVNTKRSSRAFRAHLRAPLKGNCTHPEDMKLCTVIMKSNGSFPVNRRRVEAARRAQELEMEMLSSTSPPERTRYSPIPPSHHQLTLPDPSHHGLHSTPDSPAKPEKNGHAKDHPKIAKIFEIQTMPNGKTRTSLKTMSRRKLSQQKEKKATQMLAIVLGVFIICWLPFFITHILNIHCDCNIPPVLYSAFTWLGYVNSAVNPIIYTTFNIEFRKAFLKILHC
- assay-overview: Agonist activity at recombinant human D2 receptor expressed in CHOK1 cells assessed as induction of beta arrestin2 recruitment measured after 30 mins by coelenterazine-based beta-galactosidase reporter gene assay
- Format: ADME, cell-based
- measurement-conditions: read-out: EC50
measurement-name: pEC50
// returns pEC50 (minus log10 of molar concentration), number only

Which measured pEC50 value corresponds to `COc1ccccc1N1CCN(CCCSc2nnc(-c3ccccc3)n2C)CC1` ?
6.60

---

- test-target: Sodium-dependent serotonin transporter (Homo sapiens)
- Sequence (P31645 whole entry): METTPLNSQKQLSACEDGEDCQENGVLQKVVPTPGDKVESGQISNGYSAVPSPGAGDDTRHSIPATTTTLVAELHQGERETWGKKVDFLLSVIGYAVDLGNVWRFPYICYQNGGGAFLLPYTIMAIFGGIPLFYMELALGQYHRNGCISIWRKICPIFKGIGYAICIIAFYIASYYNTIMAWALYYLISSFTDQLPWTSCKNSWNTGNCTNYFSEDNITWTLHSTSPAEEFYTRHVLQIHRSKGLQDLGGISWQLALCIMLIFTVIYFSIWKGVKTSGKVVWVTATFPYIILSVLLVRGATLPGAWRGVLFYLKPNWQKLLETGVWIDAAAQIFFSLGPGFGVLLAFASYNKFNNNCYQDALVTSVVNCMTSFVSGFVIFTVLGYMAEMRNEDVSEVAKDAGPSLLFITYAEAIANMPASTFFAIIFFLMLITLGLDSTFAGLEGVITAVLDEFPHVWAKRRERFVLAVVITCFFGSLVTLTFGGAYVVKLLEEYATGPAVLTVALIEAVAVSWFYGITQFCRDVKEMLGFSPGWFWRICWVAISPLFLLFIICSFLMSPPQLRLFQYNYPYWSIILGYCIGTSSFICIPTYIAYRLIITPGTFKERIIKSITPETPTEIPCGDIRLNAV
- assay-overview: Displacement of [3H]-citalopram from recombinant human SERT stably expressed in HEK cells measured after 90 mins by microbeta scintillation counting method
measurement-name: Ki (nM)
Unit nM implied. Number only.

Which measured Ki value corresponds to `COc1ccccc1N1CCC2(CCN(CCCSc3nnc(-c4ccccc4)n3C)CC2)CC1` ?
295

---

- test-target: UniProt P08913
- Sequence (P08913 whole entry): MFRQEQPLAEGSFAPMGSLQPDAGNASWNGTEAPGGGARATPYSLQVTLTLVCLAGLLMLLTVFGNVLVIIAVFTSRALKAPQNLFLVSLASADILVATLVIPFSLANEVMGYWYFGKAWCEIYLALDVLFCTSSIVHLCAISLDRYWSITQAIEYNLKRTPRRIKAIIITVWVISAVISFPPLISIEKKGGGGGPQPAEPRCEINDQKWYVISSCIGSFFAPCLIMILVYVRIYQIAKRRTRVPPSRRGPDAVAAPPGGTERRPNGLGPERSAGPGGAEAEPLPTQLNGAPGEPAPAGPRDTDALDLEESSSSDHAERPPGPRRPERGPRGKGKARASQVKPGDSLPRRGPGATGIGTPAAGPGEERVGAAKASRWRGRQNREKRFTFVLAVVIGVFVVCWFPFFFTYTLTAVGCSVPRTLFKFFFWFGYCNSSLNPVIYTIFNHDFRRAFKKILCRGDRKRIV
- assay-overview: Displacement of [3H]-rauwolscine from recombinant human alpha2A adrenergic receptor stably expressed in MDCK cells measured after 90 mins by microbeta scintillation counting method
- Format: cell-based
measurement-name: pKi
// returns pKi (minus log10 of molar concentration), number only

Which measured pKi value corresponds to `COc1ccccc1N1CCN(CCCSc2nnc(-c3ccccc3)n2C)CC1` ?
6.66

---

Kindly state IC50 for each of the entries shown.
- test-target: D(3) dopamine receptor (Homo sapiens, UniProt P35462)
- Sequence (P35462 whole entry): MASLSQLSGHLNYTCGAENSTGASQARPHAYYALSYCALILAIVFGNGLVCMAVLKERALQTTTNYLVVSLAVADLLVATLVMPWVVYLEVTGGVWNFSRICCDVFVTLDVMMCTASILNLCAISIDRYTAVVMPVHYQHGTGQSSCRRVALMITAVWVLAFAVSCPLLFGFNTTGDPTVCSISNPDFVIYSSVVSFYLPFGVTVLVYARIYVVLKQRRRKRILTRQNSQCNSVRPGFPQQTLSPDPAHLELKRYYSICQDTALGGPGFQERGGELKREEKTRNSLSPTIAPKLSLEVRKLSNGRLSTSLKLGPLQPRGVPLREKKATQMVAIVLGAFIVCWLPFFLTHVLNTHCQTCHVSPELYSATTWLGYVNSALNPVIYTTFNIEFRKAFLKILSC
- assay-overview: Antagonist activity at recombinant human D3 receptor expressed in CHOK1 cells assessed as inhibition of dopamine-induced beta arrestin2 recruitment preincubated for 30 mins followed by dopamine addition and measured after 90 mins by coelenterazine-based beta-galactosidase reporter gene assay
Unit nM implied. Number only.

Which measured IC50 value corresponds to `COc1ccccc1N1CCC2(CCN(CCCSc3nnc(-c4ccccc4)n3C)CC2)CC1` ?
41.4

Ok, now `COc1ccccc1N1CCN(CCCSc2nnc(-c3ccccc3)n2C)CC1`
8.7

---

Let's go through some Ki measurements on Histamine H2 receptor (Homo sapiens, UniProt P25021) together.
Sequence (P25021 whole entry): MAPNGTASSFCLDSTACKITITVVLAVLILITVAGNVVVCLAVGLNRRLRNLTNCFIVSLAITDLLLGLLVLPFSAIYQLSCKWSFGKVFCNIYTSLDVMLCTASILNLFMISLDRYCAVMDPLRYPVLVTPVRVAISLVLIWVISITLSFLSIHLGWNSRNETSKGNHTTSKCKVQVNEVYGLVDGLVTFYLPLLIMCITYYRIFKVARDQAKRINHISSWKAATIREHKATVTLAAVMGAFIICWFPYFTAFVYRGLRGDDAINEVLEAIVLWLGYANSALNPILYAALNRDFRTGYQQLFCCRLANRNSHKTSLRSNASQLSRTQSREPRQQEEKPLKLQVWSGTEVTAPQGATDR
Unit nM implied. Number only.

Checklist item: Ki tested on Histamine H2 receptor (Homo sapiens, UniProt P25021), entry `COc1ccccc1N1CCC2(CCN(CCCSc3nnc(-c4ccccc4)n3C)CC2)CC1` , value?
596

Ok, now `COc1ccccc1N1CCN(CCCSc2nnc(-c3ccccc3)n2C)CC1`
871

---

Kindly state pIC50 for each of the entries shown.
- test-target: D2 dopamine receptor (Homo sapiens)
- assay-overview: Antagonist activity at recombinant human D2 receptor expressed in CHOK1 cells assessed as inhibition of quinpirole-induced beta arrestin2 recruitment preincubated for 30 mins followed by quinpirole addition and measured after 90 mins by coelenterazine-based beta-galactosidase reporter gene assay
// returns pIC50 (minus log10 of molar concentration), number only

Which measured pIC50 value corresponds to `COc1ccccc1N1CCN(CCCSc2nnc(-c3ccccc3)n2C)CC1` ?
6.48

Ok, now `COc1ccccc1N1CCC2(CCN(CCCSc3nnc(-c4ccccc4)n3C)CC2)CC1`
5.79

---

- test-target: 5-hydroxytryptamine receptor 7 (Homo sapiens, UniProt P34969)
- Sequence (P34969 whole entry): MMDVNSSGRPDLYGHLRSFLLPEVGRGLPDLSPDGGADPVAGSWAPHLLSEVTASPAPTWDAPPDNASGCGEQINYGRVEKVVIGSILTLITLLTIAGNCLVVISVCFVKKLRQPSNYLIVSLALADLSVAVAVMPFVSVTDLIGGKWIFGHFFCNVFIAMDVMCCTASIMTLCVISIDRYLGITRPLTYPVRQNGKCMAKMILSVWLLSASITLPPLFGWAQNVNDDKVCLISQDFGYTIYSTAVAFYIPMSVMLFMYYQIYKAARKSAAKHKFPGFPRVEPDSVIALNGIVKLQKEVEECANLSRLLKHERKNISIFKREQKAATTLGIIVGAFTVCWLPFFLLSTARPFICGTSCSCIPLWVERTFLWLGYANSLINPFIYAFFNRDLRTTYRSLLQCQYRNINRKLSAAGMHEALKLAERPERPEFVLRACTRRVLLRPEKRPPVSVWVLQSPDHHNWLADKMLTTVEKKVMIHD
- assay-overview: Displacement of [3H]-LSD from recombinant human 5HT7A receptor stably expressed in HEK cell membranes measured after 90 mins by microbeta scintillation counting method
measurement-name: pKi
// returns pKi (minus log10 of molar concentration), number only

Which measured pKi value corresponds to `COc1ccccc1N1CCN(CCCSc2nnc(-c3ccccc3)n2C)CC1` ?
6.89

---

- test-target: D2 dopamine receptor (Homo sapiens, UniProt P14416)
- assay-overview: Displacement of [125I]IABN from recombinant human D2 long receptor stably expressed in HEK293 cell membranes measured after 60 mins by scintillation counting analysis
pKi: −log10 of the molar value.
The threshold is inclusive: pKi of exactly 5 counts as YES; values below receive NO.

Dear colleague, could you confirm whether `COc1ccccc1N1CCC2(CCN(CCCOc3ccc4c(c3)NC(=O)CC4)CC2)CC1` has pKi at or above 5?
YES

Ok, now `Cn1c(SCCCN2CCC3(CC2)CCN(c2ccc(C(F)(F)F)cc2F)CC3)nnc1-c1ccccc1`
NO

Ok, now `CCCCN1CCC2(CC1)CCN(c1ccccc1OC)C2`
NO

Ok, now `Cn1c(SCCCN2CCC3(CC2)CCN(c2ccccc2F)CC3)nnc1-c1ccccc1`
NO

Ok, now `CCOc1ccccc1N1CCC2(CCN(CCCSc3nnc(-c4ccccc4)n3C)CC2)CC1`
YES

Ok, now `COc1ccccc1N1CCC2(CCN(CCCSc3nnc(-c4ccc(-c5ccsc5)cc4)n3C)CC2)CC1`
YES

Ok, now `COc1ccccc1N1C=CC2(CCN(CCCSc3nnc(-c4ccccc4)n3C)CC2)CC1`
YES

Ok, now `CCCSc1nnc(-c2ccccc2)n1C`
NO

---

- test-target: 5-hydroxytryptamine receptor 2B (Homo sapiens, UniProt P41595)
- Sequence (P41595 whole entry): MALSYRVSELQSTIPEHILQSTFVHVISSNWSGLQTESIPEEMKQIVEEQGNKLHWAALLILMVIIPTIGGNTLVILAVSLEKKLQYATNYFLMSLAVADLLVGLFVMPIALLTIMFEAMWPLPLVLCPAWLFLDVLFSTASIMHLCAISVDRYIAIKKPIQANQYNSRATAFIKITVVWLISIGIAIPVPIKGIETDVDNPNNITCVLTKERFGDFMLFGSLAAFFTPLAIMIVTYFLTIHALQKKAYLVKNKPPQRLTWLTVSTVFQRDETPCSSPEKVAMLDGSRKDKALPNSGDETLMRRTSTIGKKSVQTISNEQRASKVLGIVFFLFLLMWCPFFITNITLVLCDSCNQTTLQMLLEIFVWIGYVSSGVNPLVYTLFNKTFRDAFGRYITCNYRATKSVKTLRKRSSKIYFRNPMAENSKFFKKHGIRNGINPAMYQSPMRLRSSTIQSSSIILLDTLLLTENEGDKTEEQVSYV
- assay-overview: Displacement of [3H]-LSD from recombinant human 5HT2B receptor stably expressed in HEK cell membranes measured after 90 mins by microbeta scintillation counting method
Kindly state Ki for each of the entries shown.
Unit nM implied. Number only.

Which measured Ki value corresponds to `COc1ccccc1N1CCC2(CCN(CCCSc3nnc(-c4ccccc4)n3C)CC2)CC1` ?
2140

Ok, now `COc1ccccc1N1CCN(CCCSc2nnc(-c3ccccc3)n2C)CC1`
42

---

- test-target: Histamine H1 receptor (Homo sapiens, UniProt P35367)
- Sequence (P35367 whole entry): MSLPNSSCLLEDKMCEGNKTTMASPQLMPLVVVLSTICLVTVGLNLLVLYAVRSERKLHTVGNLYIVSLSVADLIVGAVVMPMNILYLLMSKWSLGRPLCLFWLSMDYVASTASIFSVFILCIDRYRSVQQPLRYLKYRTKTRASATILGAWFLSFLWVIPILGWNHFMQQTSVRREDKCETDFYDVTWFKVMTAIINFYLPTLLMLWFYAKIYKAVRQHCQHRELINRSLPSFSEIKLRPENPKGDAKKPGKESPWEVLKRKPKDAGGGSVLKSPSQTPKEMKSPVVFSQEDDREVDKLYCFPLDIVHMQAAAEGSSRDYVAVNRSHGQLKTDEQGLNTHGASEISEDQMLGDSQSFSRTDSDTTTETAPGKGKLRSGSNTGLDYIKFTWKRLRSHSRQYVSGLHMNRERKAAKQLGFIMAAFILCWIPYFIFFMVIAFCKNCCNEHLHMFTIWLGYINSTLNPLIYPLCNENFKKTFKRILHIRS
- assay-overview: Displacement of [3H]-pyrilamine from recombinant human H1 receptor stably expressed in HEK cell membranes measured after 90 mins by microbeta scintillation counting method
Kindly state pKi for each of the entries shown.
// returns pKi (minus log10 of molar concentration), number only

Which measured pKi value corresponds to `COc1ccccc1N1CCN(CCCSc2nnc(-c3ccccc3)n2C)CC1` ?
7.40

Ok, now `COc1ccccc1N1CCC2(CCN(CCCSc3nnc(-c4ccccc4)n3C)CC2)CC1`
8.10

---

- test-target: Neuronal acetylcholine receptor; alpha3/beta4 (Homo sapiens, UniProt P30926+P32297)
- Sequence (P30926 whole entry): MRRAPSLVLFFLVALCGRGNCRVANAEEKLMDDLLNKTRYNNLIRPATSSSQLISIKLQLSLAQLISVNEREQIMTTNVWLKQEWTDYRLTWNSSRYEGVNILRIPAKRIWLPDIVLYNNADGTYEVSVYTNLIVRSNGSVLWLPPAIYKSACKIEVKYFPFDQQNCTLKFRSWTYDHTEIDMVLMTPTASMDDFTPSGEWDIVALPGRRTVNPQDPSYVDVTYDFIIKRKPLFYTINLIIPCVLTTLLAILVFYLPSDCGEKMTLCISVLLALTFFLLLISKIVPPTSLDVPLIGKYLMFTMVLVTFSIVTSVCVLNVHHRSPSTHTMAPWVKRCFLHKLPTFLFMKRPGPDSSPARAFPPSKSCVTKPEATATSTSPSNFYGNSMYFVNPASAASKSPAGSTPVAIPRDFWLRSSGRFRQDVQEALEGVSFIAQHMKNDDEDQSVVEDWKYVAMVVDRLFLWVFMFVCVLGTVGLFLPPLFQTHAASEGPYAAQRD
- Sequence (P32297 whole entry): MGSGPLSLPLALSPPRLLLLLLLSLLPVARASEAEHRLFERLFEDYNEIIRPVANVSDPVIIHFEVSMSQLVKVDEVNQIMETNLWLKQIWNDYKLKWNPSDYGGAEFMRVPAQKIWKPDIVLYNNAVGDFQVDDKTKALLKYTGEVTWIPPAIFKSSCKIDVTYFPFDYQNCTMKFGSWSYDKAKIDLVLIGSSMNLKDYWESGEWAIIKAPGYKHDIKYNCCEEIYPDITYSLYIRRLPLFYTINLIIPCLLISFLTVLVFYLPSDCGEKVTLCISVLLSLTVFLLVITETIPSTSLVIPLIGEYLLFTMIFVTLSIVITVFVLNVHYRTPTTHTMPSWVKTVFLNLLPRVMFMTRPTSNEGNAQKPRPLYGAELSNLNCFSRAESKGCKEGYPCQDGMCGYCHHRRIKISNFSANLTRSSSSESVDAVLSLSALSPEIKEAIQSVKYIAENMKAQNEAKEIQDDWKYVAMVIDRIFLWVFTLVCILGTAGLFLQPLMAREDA
- assay-overview: Displacement of [3H]-epibatidine from recombinant human alpha3beta4 nACHR stably expressed in HEK cells measured after 90 mins by microbeta scintillation counting method
measurement-name: Ki (µM)
Unit µM implied. Number only.

Which measured Ki value corresponds to `COc1ccccc1N1CCC2(CCN(CCCSc3nnc(-c4ccccc4)n3C)CC2)CC1` ?
8.52

---

- test-target: D(3) dopamine receptor (Homo sapiens)
- assay-overview: Displacement of [125I]IABN from recombinant human D3 receptor stably expressed in HEK293 cell membranes measured after 60 mins by scintillation counting analysis
pKi: −log10 of the molar value.
The threshold is inclusive: pKi of exactly 7 counts as Y; values below receive N.

Dear colleague, could you confirm whether `COc1ccccc1N1CCC2(CCNCC2)CC1` has pKi at or above 7?
N

Ok, now `COc1ccccc1N1C=CC2(CCN(CCCSc3nnc(-c4ccccc4)n3C)CC2)CC1`
Y

Ok, now `Cn1c(SCCCN2CCCCC2)nnc1-c1ccccc1`
N

Ok, now CCCCN1CCC2(CCN(c3ccccc3OC)C2)C1 (stereo not given)
N

Ok, now `Cn1c(SCCCN2CCC3(CC2)CCN(c2ccccc2OCCF)CC3)nnc1-c1ccccc1`
Y

Ok, now `COc1cc(F)ccc1N1CCC2(CCN(CCCSc3nnc(-c4ccccc4)n3C)CC2)CC1`
Y

---

- test-target: Alpha-2B adrenergic receptor (Homo sapiens)
- Sequence (P18089 whole entry): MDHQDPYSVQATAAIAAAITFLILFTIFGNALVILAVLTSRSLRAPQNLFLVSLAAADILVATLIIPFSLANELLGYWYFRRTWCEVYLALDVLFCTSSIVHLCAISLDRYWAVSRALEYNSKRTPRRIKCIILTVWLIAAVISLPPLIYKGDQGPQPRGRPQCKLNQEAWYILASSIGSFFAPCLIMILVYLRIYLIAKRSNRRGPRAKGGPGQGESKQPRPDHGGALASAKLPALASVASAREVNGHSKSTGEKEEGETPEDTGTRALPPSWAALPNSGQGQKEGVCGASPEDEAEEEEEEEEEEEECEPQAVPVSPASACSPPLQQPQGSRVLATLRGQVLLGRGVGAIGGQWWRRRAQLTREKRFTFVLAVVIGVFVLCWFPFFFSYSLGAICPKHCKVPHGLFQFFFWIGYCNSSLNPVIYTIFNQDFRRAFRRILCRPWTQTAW
- assay-overview: Displacement of [3H]-rauwolscine from recombinant human alpha2B adrenergic receptor transiently expressed in HEKT cells measured after 90 mins by microbeta scintillation counting method
measurement-name: Ki (nM)
Unit nM implied. Number only.

Which measured Ki value corresponds to `COc1ccccc1N1CCN(CCCSc2nnc(-c3ccccc3)n2C)CC1` ?
241
